- system tested: 5-hydroxytryptamine receptor 1A (Rattus norvegicus)
- protocol summary: Displacement of [3H]-8-OH-DPAT from 5HT1A receptor in rat hippocampus at 1 uM
- Format: tissue-based
Record form. Attribute: inhibition. Fill in for each entry.
One number for each entry, in %.

Sample answers from the record:
>>> print(df.to_string())
                                   compound                             system_tested  readout_type  measured_number
0  Cc1ccc(C(CCN2CCN(c3ccccc3)CC2)OC(N)=O)cc1 (single isomer, unassigned)  5-hydroxytryptamine receptor 1A (Rattus norvegicus)    inhibition             59.6
1  NC(=O)OC(CCN1CCN(c2ccccc2)CC1)c1cccc([N+](=O)[O-])c1 (single isomer, unassigned)  5-hydroxytryptamine receptor 1A (Rattus norvegicus)    inhibition             74.6
2  NC(=O)OC(CCN1CCN(c2ccccc2)CC1)c1ccc(Cl)cc1 (single isomer, unassigned)  5-hydroxytryptamine receptor 1A (Rattus norvegicus)    inhibition             64.6

INPUT: Endpoint output: inhibition of NC(=O)OC(CCN1CCN(c2ccc(F)cc2)CC1)c1ccc(F)cc1 (single isomer, unassigned) . Value?
OUTPUT: 60.9

----------
- system tested: UniProt P41595
- Sequence (P41595 whole entry): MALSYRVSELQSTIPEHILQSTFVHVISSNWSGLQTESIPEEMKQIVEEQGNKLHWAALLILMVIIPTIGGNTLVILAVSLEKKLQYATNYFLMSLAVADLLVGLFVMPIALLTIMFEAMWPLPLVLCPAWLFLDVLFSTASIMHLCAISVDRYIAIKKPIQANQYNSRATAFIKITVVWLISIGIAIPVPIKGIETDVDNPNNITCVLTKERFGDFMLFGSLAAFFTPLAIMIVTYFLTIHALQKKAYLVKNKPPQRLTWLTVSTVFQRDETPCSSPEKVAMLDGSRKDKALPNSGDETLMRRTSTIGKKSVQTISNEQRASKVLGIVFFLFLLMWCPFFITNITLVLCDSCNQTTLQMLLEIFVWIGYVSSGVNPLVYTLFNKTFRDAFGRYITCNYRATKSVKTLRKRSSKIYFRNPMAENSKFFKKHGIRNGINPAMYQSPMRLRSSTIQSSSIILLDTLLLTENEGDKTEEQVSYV
readout type: pKi
Answers are plain numbers, as −log10 of the molar value.

INPUT: Endpoint output: pKi of COc1ccc(N2CCN(CC[C@@H](OC(N)=O)c3ccccc3)CC2)cc1 . Value?
OUTPUT: 6.79

----------
- Test system: Mus musculus
- protocol summary: Analgesic activity in mouse assessed as inhibition of acetic acid-induced writhing response at 10 mg/kg, po administered 0.5 to 1 hr before acetic acid challenge
- Format: functional
readout type: inhibition in vivo at 10 mg/kg (%)
Give bare numbers, in %.

Sample answers from the record:
                                   molecule  measured_number
0  CC(C)(C)c1ccc(C(CCN2CCN(c3ccccc3)CC2)OC(N)=O)cc1 (single isomer, unassigned)               62
1  COc1ccc(C(CCN2CCN(c3ccccc3)CC2)OC(N)=O)cc1 (single isomer, unassigned)               43
2  COc1ccc(N2CCN(CCC(OC(N)=O)c3ccc(Cl)cc3Cl)CC2)cc1 (single isomer, unassigned)               16

// below: inhibition in vivo at 10 mg/kg requested for another molecule
INPUT: Endpoint output: inhibition in vivo at 10 mg/kg of NC(=O)OC(CCN1CCN(c2ccc(OC(F)(F)F)cc2)CC1)c1ccccc1 (single isomer, unassigned) . Value?
OUTPUT: 18

----------
- protocol summary: Half life in rat at 15 mg/kg, iv
- Type: ADME, organism-based
- Design: dose 15 mg/kg, route intravenous
- condition description: in vivo
readout type: half-life (min)
Give bare numbers, in min.

INPUT: Endpoint output: half-life of COc1ccc(N2CCN(CC[C@@H](OC(N)=O)c3ccccc3)CC2)cc1 . Value?
OUTPUT: 108

----------
Record form. Attribute: IC50. Fill in for each entry.
- system tested: 5-hydroxytryptamine receptor 1A (Rattus norvegicus)
- Sequence (P19327 whole entry): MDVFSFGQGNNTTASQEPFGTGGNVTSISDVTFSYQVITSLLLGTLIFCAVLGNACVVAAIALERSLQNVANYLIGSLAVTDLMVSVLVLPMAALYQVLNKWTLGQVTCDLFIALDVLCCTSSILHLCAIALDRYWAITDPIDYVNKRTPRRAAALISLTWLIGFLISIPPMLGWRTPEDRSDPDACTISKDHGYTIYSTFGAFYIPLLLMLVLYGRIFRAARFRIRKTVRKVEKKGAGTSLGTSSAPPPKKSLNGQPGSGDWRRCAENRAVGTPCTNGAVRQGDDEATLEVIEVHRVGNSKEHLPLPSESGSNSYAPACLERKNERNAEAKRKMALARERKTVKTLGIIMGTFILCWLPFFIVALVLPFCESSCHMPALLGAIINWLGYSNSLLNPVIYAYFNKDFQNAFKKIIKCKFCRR
Give bare numbers, in nM.

                                   compound                             system_tested  measured_number
0  Cc1ccccc1N1CCN(CCC(OC(N)=O)c2ccccc2)CC1 (single isomer, unassigned)  5-hydroxytryptamine receptor 1A (Rattus norvegicus)              149
1      O[C@H](CCN1CCN(c2ccccc2)CC1)c1ccccc1  5-hydroxytryptamine receptor 1A (Rattus norvegicus)              174
2         O=C(CCN1CCN(c2ccccc2)CC1)c1ccccc1  5-hydroxytryptamine receptor 1A (Rattus norvegicus)             47.5
3  Cc1cccc(N2CCN(CCC(OC(N)=O)c3ccccc3)CC2)c1 (single isomer, unassigned)  5-hydroxytryptamine receptor 1A (Rattus norvegicus)             59.6

// below: IC50 requested for another compound
INPUT: Endpoint output: IC50 of NC(=O)OC(CCN1CCN(c2ccc(C(F)(F)F)cc2)CC1)c1ccccc1 (single isomer, unassigned) . Value?
OUTPUT: 7220

----------
- system tested: UniProtKB P19327
- Sequence (P19327 whole entry): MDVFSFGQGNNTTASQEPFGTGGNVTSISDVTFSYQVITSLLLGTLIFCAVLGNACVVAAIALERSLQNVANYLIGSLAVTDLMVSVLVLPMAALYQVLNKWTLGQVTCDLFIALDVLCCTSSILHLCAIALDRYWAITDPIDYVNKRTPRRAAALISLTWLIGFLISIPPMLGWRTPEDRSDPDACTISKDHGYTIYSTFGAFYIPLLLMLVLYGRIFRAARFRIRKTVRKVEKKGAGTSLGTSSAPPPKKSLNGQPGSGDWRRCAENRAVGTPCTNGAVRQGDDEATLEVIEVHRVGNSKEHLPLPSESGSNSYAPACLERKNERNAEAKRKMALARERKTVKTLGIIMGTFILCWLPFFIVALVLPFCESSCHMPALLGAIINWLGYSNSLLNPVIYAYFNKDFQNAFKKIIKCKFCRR
readout type: pIC50
One number for each entry, as −log10 of the molar value.

                                   compound  measured_number
0  COc1ccc(N2CCN(CC[C@@H](OC(N)=O)c3ccccc3)CC2)cc1             5.05
1  NC(=O)OC(CCN1CCN(c2ccc(F)cc2)CC1)c1ccccc1 (single isomer, unassigned)             4.98
2  NC(=O)O[C@@H](CCN1CCN(c2ccccc2)CC1)c1ccccc1             6.11

Provide each entry's pIC50 from the list below.
1. NC(=O)O[C@H](CCN1CCN(c2ccccc2)CC1)c1ccccc1
2. COc1ccc(N2CCN(CCC(OC(N)=O)c3ccccc3)CC2)cc1 (racemic)
3. O[C@@H](CCN1CCN(c2ccccc2)CC1)c1ccccc1

OUTPUT:
[6.27, 5.70, 6.31]

----------
- protocol summary: AUCall in rat at 15 mg/kg, iv
- Format: ADME, organism-based
- Set-up: dose 15 mg/kg, route intravenous
- condition description: plasma
readout type: AUC (ng·h/mL)
Numbers only, in ng·h/mL.

INPUT: Endpoint output: AUC of COc1ccc(N2CCN(CC[C@@H](OC(N)=O)c3ccccc3)CC2)cc1 . Value?
OUTPUT: 17800

----------
- System: Mus musculus
- protocol summary: Analgesic activity in ip dosed mouse assessed as inhibition of acetic acid-induced writhing response administered 0.5 to 1 hr before acetic acid challenge
- Format: functional
Criterion: ED50 strictly under 0.5 mg/kg. Met: Condition met. Not met: Condition not met.

>>> df
                                   molecule  system_tested   class_assignment
0  COc1ccc(N2CCN(CC[C@@H](OC(N)=O)c3ccccc3)CC2)cc1   Mus musculus  Condition not met
1  COc1ccc(N2CCN(CCC(OC(N)=O)c3ccccc3)CC2)cc1 (racemic)   Mus musculus      Condition met
2  CN1CC[C@]23c4c5ccc(O)c4O[C@H]2[C@@H](O)C=C[C@H]3[C@H]1C5   Mus musculus  Condition not met
3  COc1ccccc1N1CCN(CCC(OC(N)=O)c2ccccc2)CC1 (single isomer, unassigned)   Mus musculus  Condition not met
4  NC(=O)OC(CCN1CCN(c2cccc(Cl)c2)CC1)c1ccccc1 (stereo not drawn)   Mus musculus  Condition not met

INPUT: API: query returns whether the molecule falls strictly under 0.5 mg/kg in ED50. Query: NC(=O)OC(CCN1CCN(c2ccc(F)cc2)CC1)c1ccccc1 (single isomer, unassigned)
OUTPUT: Condition not met

INPUT: Same again, this time with NC(=O)O[C@H](CCN1CCN(c2ccccc2)CC1)c1ccccc1
OUTPUT: Condition met

----------
- protocol summary: Clearance in rat at 15 mg/kg, iv
- Assay type: ADME, organism-based
- Design: dose 15 mg/kg, route intravenous
- condition description: in vivo
readout type: clearance (mL/min/kg)
Answers are plain numbers, in mL/min/kg.

INPUT: Endpoint output: clearance of COc1ccc(N2CCN(CC[C@@H](OC(N)=O)c3ccccc3)CC2)cc1 . Value?
OUTPUT: 14.1

All values here come from ChEMBL document CHEMBL2157932.
